Source of measurements: ChEMBL document CHEMBL4732135

- SYSTEM_NAME: Amyloid-beta precursor protein (Homo sapiens)
- TEST_DESCRIPTION: Inhibition of amyloid beta (1 to 42) (unknown origin) assessed as reduction in peptide aggregation at 10 uM measured after 24 hrs by thioflavin-T fluorescence assay relative to control
Square brackets hold non-standard residues; d marks the D form. Peptide text beside a SMILES is read from it. ξ: configuration not given here. Phe(4-NO2) = N[C@@H](Cc1ccc([N+](=O)[O-])cc1)C(=O)O; Oic(3aξ,7aξ) = O=C(O)[C@@H]1CC2CCCCC2N1; Gly(cPent) = N[C@H](C(=O)O)C1CCCC1; Ala(cPr) = N[C@@H](CC1CC1)C(=O)O; 4Pal = N[C@@H](Cc1ccncc1)C(=O)O; Tle = CC(C)(C)[C@H](N)C(=O)O; β3hP = O=C(O)C[C@@H]1CCCN1; Abu = CC[C@H](N)C(=O)O
MEASURED_METRIC: inhibition (%)

Solved entries:
molecule="CC(C)[C@H](N)C(=O)N[C@H](C(=O)N[C@H](C(=O)N[C@@H](C)C(=O)O)C1CCCC1)C(C)C (H-VV[Gly(cPent)]A-OH)" reported_measurement=47.8
molecule="CC[C@H](C)[C@H](NC(=O)C[C@@H]1CCCN1C(=O)C[C@@H]1CCCN1)C(=O)N[C@@H](C)C(=O)O (H-[β3hP][β3hP]IA-OH)" reported_measurement=100
molecule="CC[C@H](C)[C@H](NC(=O)[C@@H](NC(=O)[C@@H](N)C(C)(C)C)C(C)(C)C)C(=O)N[C@@H](C)C(=O)O (H-[Tle][Tle]IA-OH)" reported_measurement=95.3

P = CC[C@H](C)[C@H](NC(=O)[C@@H]1CC2CCCCC2N1C(=O)[C@@H](N)C(C)C)C(=O)N[C@@H](C)C(=O)O (stereo partly specified) (H-V[Oic(3aξ,7aξ)]IA-OH)
Q = CC[C@H](NC(=O)[C@@H](N)C(C)C)C(=O)N[C@H](C(=O)N[C@@H](C)C(=O)O)[C@@H](C)CC (H-V[Abu]IA-OH)
R = CC[C@H](C)[C@H](NC(=O)[C@@H](NC(=O)[C@@H](N)Cc1ccc([N+](=O)[O-])cc1)C(C)C)C(=O)N[C@@H](C)C(=O)O (H-[Phe(4-NO2)]VIA-OH)
Q: Hey, quick one: sort these by inhibition, largest value first please. The reply should contain the labels ordered as requested.
Result: P, R, Q
(P: 100%, R: 50.4%, Q: 24.1%)

A = CC[C@H](NC(=O)[C@@H](NC(=O)[C@@H](N)C(C)C)C(C)C)C(=O)N[C@@H](C)C(=O)O (H-VV[Abu]A-OH)
B = CC[C@H](C)[C@H](NC(=O)[C@H](Cc1ccccc1)NC(=O)[C@@H](N)Cc1ccccc1)C(=O)N[C@@H](C)C(=O)O (H-FFIA-OH)
C = CC[C@H](C)[C@H](NC(=O)[C@@H](NC(=O)[C@@H](N)Cc1ccncc1)C(C)C)C(=O)N[C@@H](C)C(=O)O (H-[4Pal]VIA-OH)
D = CC(C)[C@H](N)C(=O)N[C@H](C(=O)N[C@@H](CC1CC1)C(=O)N[C@@H](C)C(=O)O)C(C)C (H-VV[Ala(cPr)]A-OH)
Q: Put the items in sequence by inhibition, from largest down. Write the labels out in the order the request specifies.
Result: B, C, A, D
(B: 100%, C: 46%, A: 4.4%, D: 0%)

A = CC[C@H](C)[C@H](NC(=O)[C@@H]1CC2CCCCC2N1C(=O)[C@@H]1CC2CCCCC2N1)C(=O)N[C@@H](C)C(=O)O (stereo partly specified) (H-[Oic(3aξ,7aξ)][Oic(3aξ,7aξ)]IA-OH)
B = CC(C)[C@H](N)C(=O)N[C@H](C(=O)NC[C@@H]1CCCN1[C@@H](C)C(=O)O)C(C)C
Q: I'm curious whether A or B has the smaller inhibition number. Which is it? Answer by quoting the chosen item's label.
Result: B
(B: 11.9%, A: 91.5%)
